Cited source: BigSolDB 2.1

Settings: in acetic acid, 318.15 K
measurementName: solubility (mole fraction)

[
  {
    "mol": "O=C(O)c1cc2ccccc2cc1O",
    "measurementName": "solubility (mole fraction)",
    "resultValue": 0.0121
  }
]

====

Details: in ethyl acetate, 298.15 K
measurementName: solubility (mole fraction)

[
  {
    "mol": "O=C(O)c1cc2ccccc2cc1O",
    "resultValue": 0.0251
  }
]

====

Settings: in acetic acid, 298.15 K
measurementName: solubility (mole fraction)

[
  {
    "mol": "O=C(O)c1cc2ccccc2cc1O",
    "measurementName": "solubility (mole fraction)",
    "resultValue": 0.00672
  }
]
